I'd appreciate it if you could supply solubility values for the items below.
Test: solubility of medicament in polyethylene glycol-550-dimethyl ether at 30°C
Details: polyethylene glycol-550-dimethyl ether, organic solvent or mixture
Numbers only, in mg/mL.

Sample answers from the record:
Ask | Give the reported solubility for this molecule. "CCOC(=O)c1ccc(N)cc1"
Reply | 111

Ask | Give the reported solubility for this molecule. "CCCCC[C@H](O)/C=C/[C@H]1[C@H](O)CC(=O)[C@@H]1C/C=C\CCCC(=O)O"
Reply | 2

Ask | Give the reported solubility for this molecule. "CC(=O)Oc1ccccc1C(=O)O"
Reply | 120

Further cases:
Ask | Give the reported solubility for this molecule. CCCCCCCCCCCCCCCC(=O)N(CCO)CCO [N,N-bis(2-hydroxyethyl)-palmitamide]
Reply | 2.7
